# IC50 per record follows
# Test system: human colon carcinoma cells HCT-15
# protocolDescription: Human colon tumor test in vitro, HCT-15 cell growth inhibition
# Type: cell-based
# setupConditions: Homo sapiens, HCT-15, 72 h, read-out: in vitro HCT-15 ID50 (50 percent inhibition of number of doublings)

compound	systemName	IC50
COc1cccc2c1C(=O)c1c(O)c3c(c(O)c1C2=O)C[C@@](O)(C(=O)CO)C[C@@H]3O[C@H]1C[C@H](N)[C@H](O)[C@H](C)O1 [Adriamycin, reference compound]	human colon carcinoma cells HCT-15	0.01 µg/mL
O=c1[nH]cc(F)c(=O)[nH]1 [5-Fluorouracil, reference compound]	human colon carcinoma cells HCT-15	0.27 µg/mL
Cc1c(-c2ccc(-c3ccccc3F)cc2)nc2ccc(F)cc2c1C(=O)[O-].[Na+]	human colon carcinoma cells HCT-15	0.017 µg/mL
Cc1c(-c2ccc(C3CCCCC3)cc2)nc2ccc(F)cc2c1C(=O)[O-].[Na+]	human colon carcinoma cells HCT-15	0.04 µg/mL

====

# Test system: human colon carcinoma cells HCT-15
# protocolDescription: Human colon tumor test in vitro, HCT-15 cell growth inhibition
# Assay type: cell-based
# setupConditions: Homo sapiens, HCT-15, 72 h, HCT-15 cells, compound day 1 to day 4; read-out: in vitro HCT-15 ID50 (50 percent inhibition of number of doublings)
# Protocol: The compound of this invention were also tested for their ability to inhibit the growth of human colon carcinoma cells in vitro. The human colon carcinoma cells, designated HCT-15, were derived from a specimen of an adenocarcinoma of human colon removed during surgery. […] On day 1 cells from sample dishes were harvested using trypsin (0.25%) treatment and counted with a hemocytometer to determine the number of cells per dish at the time of the addition of the compounds. […]
propertyName: IC50

smilesRepresentation	systemName	propertyName	recordedResult
Cc1ccc(-c2ccc(-c3nc4ccc(F)cc4c(C(=O)O)c3C)cc2)cc1C	human colon carcinoma cells HCT-15	IC50	< 0.1 µg/mL
O=C(O)c1cc(-c2ccc(Oc3ccc(F)cc3)cc2)nc2ccc(F)cc12	human colon carcinoma cells HCT-15	IC50	< 0.5 µg/mL
Cc1c(-c2ccc(Oc3ccccc3)cc2)nc2ccc(C(F)(F)F)cc2c1C(=O)O	human colon carcinoma cells HCT-15	IC50	< 0.5 µg/mL
Cc1c(-c2ccc(SCc3ccccc3)cc2)nc2ccc(F)cc2c1C(=O)O	human colon carcinoma cells HCT-15	IC50	< 0.5 µg/mL
CCc1ccc2nc(-c3ccc(-c4ccccc4)cc3)c(C)c(C(=O)O)c2c1	human colon carcinoma cells HCT-15	IC50	< 0.5 µg/mL
CSc1ccc2nc(-c3ccc(-c4ccccc4)cc3)c(C)c(C(=O)O)c2c1	human colon carcinoma cells HCT-15	IC50	> 1 µg/mL
Cc1c(-c2ccc(-c3ccccc3)cc2F)nc2ccc(F)cc2c1C(=O)O	human colon carcinoma cells HCT-15	IC50	< 0.001 µg/mL
Cc1c(-c2ccc(OCc3ccccc3)cc2)nc2ccc(F)cc2c1C(=O)O	human colon carcinoma cells HCT-15	IC50	1 µg/mL
CCc1cccc(-c2ccc(-c3nc4ccc(F)cc4c(C(=O)O)c3C)cc2)c1	human colon carcinoma cells HCT-15	IC50	0.0079 µg/mL

====

# System: L1210 leukemia
# protocolDescription: Lymphoid Leukemia L1210, survival of tumored mice
# Assay type: in vivo, CD2F1 mice
# setupConditions: Mus musculus, L1210, ip, 720 h, 37.5 mg/kg i.p.; read-out: L1210 Leukemia % T/C (median survival time)
propertyName: response vs control in vivo at 37.5 mg/kg (%)

compound	recordedResult
Cc1c(-c2ccc(Oc3ccccc3)cc2)nc2ccc(Br)cc2c1C(=O)O [Example 143]	132
Cc1c(-c2ccc(-c3ccccc3)cc2)nc2ccc(C(F)(F)F)cc2c1C(=O)O [Example 146]	164
Cc1c(-c2ccc(-c3ccccc3)cc2)nc2ccc(Br)cc2c1C(=O)O [Example 142]	169
Cc1c(-c2ccc(-c3ccc(Cl)c(Cl)c3)cc2)nc2ccc(F)cc2c1C(=O)O [Example 126]	150

====

# L1210 Leukemia % T/C (median survival time) per record follows
# Test system: L1210 leukemia
# protocolDescription: Lymphoid Leukemia L1210, survival of tumored mice
# Assay type: in vivo, CD2F1 mice
# setupConditions: 100 mg/kg i.p.
propertyName: L1210 Leukemia % T/C (median survival time) (%)

compound	recordedResult
Cc1c(-c2ccc(-c3ccccc3)cc2)nc2ccc(Cl)cc2c1C(=O)O	164
CCc1c(-c2ccc(-c3ccccc3)cc2)nc2ccc(F)cc2c1C(=O)O	166
Cc1cc(-c2ccccc2)ccc1-c1nc2ccc(F)cc2c(C(=O)O)c1C	148
Cc1ccc(-c2ccc(-c3nc4ccc(F)c(Cl)c4c(C(=O)O)c3C)cc2)cc1 [Example 85]	184
Cc1ccc(-c2ccc(-c3nc4ccc(F)c(Cl)c4c(C(=O)O)c3C)cc2)cc1 [Example 168]	148

====

# IC50 per record follows
# Tested on: human colon carcinoma cells HCT-15
# protocolDescription: Human colon tumor test in vitro, HCT-15 cell growth inhibition
# Type: cell-based
# setupConditions: Homo sapiens, HCT-15, 72 h, HCT-15 cells, compound day 1 to day 4; read-out: in vitro HCT-15 ID50 (50 percent inhibition of number of doublings)
propertyName: IC50

molecule	propertyName	recordedResult
Cc1c(-c2ccc(Sc3ccccc3)cc2)nc2ccc(Cl)cc2c1C(=O)O [Example 111]	IC50	< 0.5 µg/mL
Cc1c(-c2ccc(C3CCCCC3)cc2)nc2c(Br)cc(Br)cc2c1C(=O)O [Example 46]	IC50	0.42 µg/mL
Cc1c(-c2ccc(-c3ccccc3)cc2)nc2ccc(Br)cc2c1C(=O)O [Example 52]	IC50	< 0.5 µg/mL
Cc1ccc2nc(-c3ccc(-c4ccccc4)cc3)c(C)c(C(=O)O)c2c1Cl [Example 83]	IC50	> 1 µg/mL
Cc1c(-c2ccc(-c3ccc(F)cc3)cc2)nc2ccc(F)cc2c1C(=O)O [Example 31]	IC50	< 0.5 µg/mL
Cc1ccc2nc(-c3ccc(-c4ccccc4)cc3)c(C)c(C(=O)O)c2c1 [Example 14]	IC50	0.38 µg/mL
Cc1c(-c2ccc(-c3ccc(Br)cc3)cc2)nc2ccc(F)cc2c1C(=O)O [Example 12]	IC50	1 µg/mL
Cc1c(-c2ccc(-c3ccccc3)cc2)nc2cc(Cl)cc(Cl)c2c1C(=O)O [Example 82]	IC50	> 1 µg/mL
Cc1c(-c2ccc(Oc3ccc(Cl)cc3)cc2)nc2ccc(F)cc2c1C(=O)O [Example 29]	IC50	< 0.5 µg/mL
Cc1c(-c2ccc(-c3ccc(O)cc3)cc2)nc2ccc(Cl)cc2c1C(=O)O [Example 192]	IC50	> 1 µg/mL
Cc1c(-c2ccc(C3CCCCC3)cc2)nc2ccc(C(F)(F)F)cc2c1C(=O)O [Example 48]	IC50	0.1 µg/mL
Cc1c(-c2cc(-c3ccccc3)cs2)nc2ccc(F)cc2c1C(=O)O [Example 44]	IC50	< 0.1 µg/mL
Cc1c(-c2ccc(-c3ccc(F)cc3)cc2)nc2cc(Cl)c(F)cc2c1C(=O)O [Example 54]	IC50	< 0.5 µg/mL
Cc1c(-c2ccc(-c3ccccc3)cc2)nc2ccc(C(F)(F)F)cc2c1C(=O)O [Example 56]	IC50	< 0.5 µg/mL
Cc1c(-c2ccc(-c3ccccc3)cc2)nc2cccc(Cl)c2c1C(=O)O [Example 80]	IC50	< 0.5 µg/mL
Cc1c(-c2ccc(-c3ccccc3)cc2)nc2c(Br)cc(Br)cc2c1C(=O)O [Example 60]	IC50	< 0.5 µg/mL
Cc1c(-c2ccc(Oc3ccccc3)cc2)nc2ccc(Br)cc2c1C(=O)O [Example 53]	IC50	< 0.5 µg/mL

====

# System: L1210 leukemia
# protocolDescription: Lymphoid Leukemia L1210, survival of tumored mice
# Type: in vivo, CD2F1 mice
# setupConditions: Mus musculus, L1210, ip, 720 h, 400 mg/kg i.p.; read-out: L1210 Leukemia % T/C (median survival time)

molecule	systemName	response vs control in vivo at 400 mg/kg / %
CCc1c(-c2ccc(C(C)CC)cc2)nc2ccc(F)cc2c1C(=O)O (stereo not shown) [Example 17]	L1210 leukemia	136
Cc1c(-c2ccc(SC(C)C)cc2)nc2ccc(F)cc2c1C(=O)O [Example 13]	L1210 leukemia	129
Cc1c(-c2ccc(OCc3ccccc3)cc2)nc2ccc(F)cc2c1C(=O)O [Example 16]	L1210 leukemia	190
Cc1c(-c2ccc([S+]([O-])c3ccccc3)cc2)nc2ccc(F)cc2c1C(=O)O (stereo not shown) [Example 34]	L1210 leukemia	170
CCCCCCc1ccc(-c2nc3ccc(F)cc3c(C(=O)O)c2C)cc1 [Example 8]	L1210 leukemia	147
Cc1c(-c2ccc(C3CCCCC3)cc2)nc2ccc(Cl)cc2c1C(=O)O [Example 3]	L1210 leukemia	207
Cc1ccc2nc(-c3ccc(C4CCCCC4)cc3)c(C)c(C(=O)O)c2c1 [Example 6]	L1210 leukemia	162
COc1ccc(-c2ccc(-c3nc4ccc(Cl)cc4c(C(=O)O)c3C)cc2)cc1 [Example 24]	L1210 leukemia	154
Cc1c(-c2ccc(C3CCCCC3)cc2)nc2ccc(Br)cc2c1C(=O)O [Example 45]	L1210 leukemia	160
O=C(O)c1cc(-c2ccc(C3CCCCC3)cc2)nc2ccc(F)cc12 [Example 5]	L1210 leukemia	141

// data source = patent US5032597A
